Test system: Candida albicans
protocol: In vitro determination of minimum inhibitory concentration (MIC), serial dilution
Type: cell-based
settings: 336 h, pH 6, Candida albicans, pH 6.0, 22° C., 14 days, read-out: MIC C.alb
# Lookup of reported MIC keyed by entry
quantity-kind: MIC (µg/mL)

[[record]]
compound = "Clc1ccc(SCCNC(Cn2ccnc2)c2ccc(Cl)cc2Cl)cc1 (stereo not shown) [Compound 34]"
target_entity = "Candida albicans"
experimental_result = 3.12

[[record]]
compound = "Clc1ccc(SCCNC(Cn2cncn2)c2ccc(Cl)cc2Cl)cc1 (stereo not shown) [Compound 33]"
target_entity = "Candida albicans"
experimental_result = 12.5

[[record]]
compound = "Clc1ccc(C(Cn2ccnc2)NCCCSc2c(Cl)cccc2Cl)c(Cl)c1 (stereo not shown) [Compound 112]"
target_entity = "Candida albicans"
experimental_result = 6.25

[[record]]
compound = "Clc1ccc(C(Cn2cncn2)NCCSc2ccc(Br)cc2)c(Cl)c1 (stereo not shown) [Compound 36]"
target_entity = "Candida albicans"
experimental_result = 25

[[record]]
compound = "CN(CCCOc1ccc(Cl)cc1)C(Cn1ccnc1)c1ccc(Cl)cc1Cl (stereo not shown) [Compound 60]"
target_entity = "Candida albicans"
experimental_result = 3.12

[[record]]
compound = "CN(CCCOc1ccc(Br)cc1)C(Cn1cncn1)c1ccc(Cl)cc1Cl (stereo not shown) [Compound 62]"
target_entity = "Candida albicans"
experimental_result = 6.25

[[record]]
compound = "Clc1ccc(C(Cn2ccnc2)NCCCSc2ccccc2)c(Cl)c1 (stereo not shown) [Compound 90]"
target_entity = "Candida albicans"
experimental_result = 6.25

[[record]]
compound = "Cc1ccc(OCCCNC(Cn2cncn2)c2ccc(Cl)cc2Cl)cc1 (stereo not shown) [Compound 52]"
target_entity = "Candida albicans"
experimental_result = 12.5

[[record]]
compound = "Fc1ccc(OCCCNC(Cn2ccnc2)c2ccc(Cl)cc2Cl)cc1 (stereo not shown) [Compound 56]"
target_entity = "Candida albicans"
experimental_result = 12.5

[[record]]
compound = "CN(CCCSCc1ccc(Cl)cc1)C(Cn1ccnc1)c1ccc(Cl)cc1Cl (stereo not shown) [Compound 3]"
target_entity = "Candida albicans"
experimental_result = 3.12


###

So I've got MIC readings for Trichophyton verrucosum, take a look.
quantity-kind: MIC (µg/mL)

[[record]]
compound = "Cl.Cl.Clc1ccc(SCCCNC(Cn2ccnc2)c2ccc(Cl)cc2Cl)cc1 (stereo not drawn)"
experimental_result = 0.39

[[record]]
compound = "Clc1ccc(SCCCNC(Cn2ccnc2)c2cccc3ccccc23)cc1 (stereo not drawn)"
experimental_result = 1.56

[[record]]
compound = "Fc1ccc(OCCCNC(Cn2ccnc2)c2ccc(Cl)cc2Cl)cc1 (stereo not drawn)"
experimental_result = 1.56

[[record]]
compound = "Clc1ccc(C(Cn2ccnc2)NCCCSc2ccccc2)c(Cl)c1 (stereo not drawn)"
experimental_result = 1.56

[[record]]
compound = "Cc1ccc(OCCCNC(Cn2cncn2)c2ccc(Cl)cc2Cl)cc1 (stereo not drawn)"
experimental_result = 3.12

[[record]]
compound = "Clc1ccc(SCCCNC(Cn2cncn2)c2ccc(Cl)cc2Cl)cc1 (stereo not drawn)"
experimental_result = 3.12

[[record]]
compound = "CN(CCCOc1ccc(Br)cc1)C(Cn1cncn1)c1ccc(Cl)cc1Cl (stereo not drawn)"
experimental_result = 1.56

[[record]]
compound = "Clc1ccc(C(Cn2cncn2)NCCSc2ccc(Br)cc2)c(Cl)c1 (stereo not drawn)"
experimental_result = 12.5

[[record]]
compound = "CN(CCCOc1ccc(I)cc1)C(Cn1ccnc1)c1ccc(Cl)cc1Cl (stereo not drawn)"
experimental_result = 1.56


Origin of measurements: patent US4812465A
